target or system: rCYP1A2 (Homo sapiens)
Sequence (P05177 1-516): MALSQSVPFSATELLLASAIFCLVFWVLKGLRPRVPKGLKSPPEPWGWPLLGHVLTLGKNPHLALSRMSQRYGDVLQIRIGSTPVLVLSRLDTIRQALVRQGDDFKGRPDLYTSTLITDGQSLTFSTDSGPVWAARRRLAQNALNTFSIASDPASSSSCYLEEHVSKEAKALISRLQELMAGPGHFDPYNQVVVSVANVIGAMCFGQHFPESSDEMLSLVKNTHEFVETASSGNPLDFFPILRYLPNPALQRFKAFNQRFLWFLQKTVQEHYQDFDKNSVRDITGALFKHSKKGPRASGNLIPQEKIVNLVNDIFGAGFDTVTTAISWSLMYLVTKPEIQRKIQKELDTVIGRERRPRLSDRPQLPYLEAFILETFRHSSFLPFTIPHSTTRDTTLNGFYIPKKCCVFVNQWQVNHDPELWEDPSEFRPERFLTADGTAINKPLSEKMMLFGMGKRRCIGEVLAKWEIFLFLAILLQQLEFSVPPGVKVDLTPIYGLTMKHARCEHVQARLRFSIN
assay explanation: Metabolic stability / reaction phenotyping with recombinant human CYP1A2
condition: human, recombinant human CYP1A2, 1 µM, pH 7.4
Strictly below 1 µL/min/pmol in rCYP Clint, CYP1A2: met. Otherwise: not met.

The following compounds have reported results that may help.
compound: O=C1Cc2cc(CCN3CCN(c4nsc5ccccc45)CC3)c(Cl)cc2N1 [Ziprasidone, ziprasidone, reference compound]
target or system: rCYP1A2 (Homo sapiens)
class name: met
--
compound: CSc1nc2cc(Cl)c(Oc3cccc(Cl)c3Cl)cc2[nH]1 [Triclabendazole, reference compound]
target or system: rCYP1A2 (Homo sapiens)
class name: not met
--
compound: CNC(=O)Oc1cc(C)c(SC)c(C)c1
target or system: rCYP1A2 (Homo sapiens)
class name: met

Please check: rCYP Clint, CYP1A2 for CC(C)(O)c1ccccc1CC[C@@H](SCC1(CC(=O)O)CC1)c1cccc(/C=C/c2ccc3ccc(Cl)cc3n2)c1 [Montelukast, montelukast, reference compound] , strictly under 1 µL/min/pmol or not?
met

Please check: rCYP Clint, CYP1A2 for CCCSc1ccc2nc(NC(=O)OC)[nH]c2c1 [Albendazole, albendazole, reference compound] , strictly under 1 µL/min/pmol or not?
not met

###

target or system: rCYP2C19 (Homo sapiens, UniProt P33261)
Sequence (P33261 whole entry): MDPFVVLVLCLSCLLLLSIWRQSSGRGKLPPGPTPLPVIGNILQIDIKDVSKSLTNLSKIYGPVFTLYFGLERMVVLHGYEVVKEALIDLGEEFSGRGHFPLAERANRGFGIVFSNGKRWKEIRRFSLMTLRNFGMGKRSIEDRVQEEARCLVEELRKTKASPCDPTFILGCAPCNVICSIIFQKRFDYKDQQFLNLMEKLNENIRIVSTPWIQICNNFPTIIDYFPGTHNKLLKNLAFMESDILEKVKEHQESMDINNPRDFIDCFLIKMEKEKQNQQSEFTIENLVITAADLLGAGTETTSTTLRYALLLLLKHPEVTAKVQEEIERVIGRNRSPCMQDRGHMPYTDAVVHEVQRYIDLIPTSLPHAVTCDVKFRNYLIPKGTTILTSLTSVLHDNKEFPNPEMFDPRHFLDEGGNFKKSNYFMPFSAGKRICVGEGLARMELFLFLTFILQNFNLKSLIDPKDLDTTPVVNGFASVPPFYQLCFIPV
assay explanation: Metabolic stability / reaction phenotyping with recombinant human CYP2C19
condition: human, recombinant human CYP2C19, 1 µM, pH 7.4
Output MET for % Contribution of CYP Enzymes (fmCYP) in Metabolism, CYP2C19 not less than 2%; output NOT MET otherwise.

The following compounds have reported results that may help.
compound: CCCSc1ccc2nc(NC(=O)OC)[nH]c2c1 [Albendazole, albendazole, reference compound]
class name: MET
//
compound: O=C1Cc2cc(CCN3CCN(c4nsc5ccccc45)CC3)c(Cl)cc2N1 [Ziprasidone, ziprasidone, reference compound]
class name: MET
//
compound: CNC(=O)O/N=C/C(C)(C)[S+](C)[O-] (centres unmarked) [Aldicarb sulfoxide, aldicarb sulfoxide]
class name: MET

Determine whether this compound has % Contribution of CYP Enzymes (fmCYP) in Metabolism, CYP2C19 no lower than 2%: `CNC(=O)Oc1cc(C)c(SC)c(C)c1`
NOT MET

Determine whether this compound has % Contribution of CYP Enzymes (fmCYP) in Metabolism, CYP2C19 no lower than 2%: CSc1nc2cc(Cl)c(Oc3cccc(Cl)c3Cl)cc2[nH]1 [Triclabendazole, reference compound]
MET
